Source of measurements: the supplement of paper PMC12042874

- Assay comment: amyloid nucleation score (Sup35N fusion, yeast selection) (log enrichment); library NNK2; higher = more nucleation; inactive = no reads after selection;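 further: zero at mode of non-aggregating sequences after 7 days selection at 30°C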
Value kind: amyloid nucleation score

Solved cases (8 shown):
1. TWESSV; 0.613
2. RATISLVDMEFSLRDPQ; inactive
3. KTRLPGVL; inactive
4. TGAVKLTSAAIINCTYHARM; inactive
5. STSICYFLYRLWSHISLNSL; inactive
6. LYTSSATHLIRP; inactive
7. FAFICTR; inactive
8. RMFSIRFMWCFCSRRKPLLG; inactive

Now look at this entry.
Using the record for ISCSKMRRFWHL , report its amyloid nucleation score. 0.587

====

- Assay comment: amyloid nucleation score (Sup35N fusion, yeast selection) (log enrichment); library NNK1; higher = more nucleation; inactive = no reads after selection
Provide the recorded amyloid nucleation score for the entries that follow.
Numbers only.

Some entries whose results are on file:
1. RFKCDVTTVDW; 0.108
2. TSPEVLRAIVSTSLFCCILR; -0.724
3. NNTFIMLIF; 6.98

For AFGAVFRGEKR , what is its reported amyloid nucleation score? 0.241

====

Would you kindly list amyloid nucleation score for each of these substances?
- Assay comment: amyloid nucleation score (Sup35N fusion, yeast selection) (log enrichment); library NNK2; higher = more nucleation; inactive = no reads after selection
One number for each entry.

1. SFFQESHKRIDRVYKYGMGS; -0.96

For each of the items listed, what is its amyloid nucleation score?
1. MRWFNNVFFGYVVSVSRSWN
2. YPFLIS

1: -1.01; 2: -0.922

What value of amyloid nucleation score has been reported for the following substance? SCLMIIPFVFMFEHYTFEEG 7.71

====

- Assay comment: amyloid nucleation score (Sup35N fusion, yeast selection) (log enrichment); library NNK3; higher = more nucleation; inactive = no reads after selection
Value kind: amyloid nucleation score

Answered cases to consult:
1) GSDVMSGG; inactive
2) ARQTVPSCTLYYWFLSTVKY; inactive
3) MKLWFNTARLDMKVSKTVYS; inactive
4) WSRSSV; inactive
5) MGNYRALCLLLTWLRFLAIE; -0.015

// next item, amyloid nucleation score requested
If you can, please state the reported amyloid nucleation score value of IRGIVV . inactive

====

- Assay comment: amyloid nucleation score (Sup35N fusion, yeast selection) (log enrichment); library NNK1; higher = more nucleation; inactive = no reads after selection
Value kind: amyloid nucleation score
Give bare numbers.

Worked examples, 5 substances total:
1. ENQFTVLSNGFDVIALFSFE; 1.07
2. AFTPSWRTRLQMTTL; -0.386
3. RMFVGWHSLERIL; 1.21
4. GVNLRSNRESSVCDNWRGLR; 0.423
5. GSADSFRGYGCFILVKATWY; 0.717

Would you be so kind as to report amyloid nucleation score for each listed record?
1. FHGSGESVNTDTMLTLYISV
2. SMFRAFKGYLWGNCSREAQR
3. GRAYGSVCILRLGC
4. SKSLKYICMYFQHTNSLASI

1. -0.157
2. 0.026
3. 0.835
4. 0.241

Here are 7 substances. What values of amyloid nucleation score were reported for them?
1. LFFQSDMFGVFCISYTTGVS
2. YLTSANTSFTFESWWCL
3. NCLVAFYLKGYSCWWRFIIC
4. RTLGFLRCFIITSVDSTKNA
5. TAIDITTVLCIICRDPHINL
6. FYGVRVTGAAFRALVMVSPR
7. GKGWYTDSMCRIRMMNARLL

0.323
2.93
1.53
0.514
8.36
0.616
0.233

State recorded amyloid nucleation score for all listed substances.
1. QLLFRRYKMGIVSRYSVITR
2. LKSRGWYCFSNVTMYDLRME
3. TCRVEMPSCCCFSGIVGCDR
4. SSSYVYYEGRFILTFGLF
5. GVCRDAVGGVTYDK
6. SSYDWCWSHVCFK
7. SMPCQWR
8. RDCPTNIVAGTLLCLMAEWT

-0.339
3.42
3.53
-0.157
-0.363
0.8
0.503
-0.549

Please state amyloid nucleation score for every substance in the list that follows.
1. RSGGTSSTALQQQLRFNRTR
2. CMKYMLCARKYFKSYSWLLS

1. 0.581
2. 1.04
